biological target: BTK (Homo sapiens, UniProt Q06187); construct: purchased ProQinase; assay: Recombinant kinase radioassay, BTK; format: biochemical; conditions: recombinant kinase, radioassay, ATP 15 µM; at least three independent experiments, range 0.01–100 µM; read-out: IC50 BTK
Sequence (Q06187 whole entry): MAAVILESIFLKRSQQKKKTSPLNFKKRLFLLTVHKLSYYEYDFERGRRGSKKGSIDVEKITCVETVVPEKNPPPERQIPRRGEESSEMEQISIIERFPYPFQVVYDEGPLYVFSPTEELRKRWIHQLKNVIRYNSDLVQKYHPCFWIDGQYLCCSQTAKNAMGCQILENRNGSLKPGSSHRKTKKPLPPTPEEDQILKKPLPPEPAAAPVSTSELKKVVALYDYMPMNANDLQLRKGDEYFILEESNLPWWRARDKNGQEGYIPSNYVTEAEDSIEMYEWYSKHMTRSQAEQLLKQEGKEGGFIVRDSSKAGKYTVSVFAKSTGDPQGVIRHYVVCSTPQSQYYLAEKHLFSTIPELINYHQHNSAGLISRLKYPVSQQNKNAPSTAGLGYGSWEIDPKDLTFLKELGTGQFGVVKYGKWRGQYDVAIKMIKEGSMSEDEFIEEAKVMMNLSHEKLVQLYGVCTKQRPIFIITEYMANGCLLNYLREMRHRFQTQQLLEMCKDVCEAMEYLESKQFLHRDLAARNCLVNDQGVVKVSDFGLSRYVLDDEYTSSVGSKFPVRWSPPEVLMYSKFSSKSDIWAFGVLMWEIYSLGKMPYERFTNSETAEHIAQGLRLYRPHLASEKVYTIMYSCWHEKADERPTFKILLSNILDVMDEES
pIC50: −log10 of the molar value.
Quantity Measured: pIC50

Sample records with pIC50:
[
  {
    "Chemical Structure": "CN1CCN(c2ccc(Nc3nc(Nc4cccc([N+](=O)[O-])c4)c4ncn(CC5CC5)c4n3)cc2)CC1",
    "pIC50": 5.87
  },
  {
    "Chemical Structure": "CN1CCN(C(=O)c2ccc(Nc3nc(Nc4ccccc4)c4ncn(CC5CC5)c4n3)cc2)CC1",
    "pIC50": 5.22
  }
]

I: CC(C)CCn1cnc2c(Nc3ccccc3)nc(Nc3ccc(N4CCN(C)CC4)cc3)nc21
II: CN1CCN(c2ccc(Nc3nc(Nc4ccc(Cl)c(Cl)c4)c4ncn(CC5CC5)c4n3)cc2)CC1
Task: Looking at recorded values for pIC50, does I or II come in lower? Bench note: the answer is the label of the chosen record.
Result: II
(II: 5.41, I: 5.65)

1: CC(C)CCn1cnc2c(Nc3ccc(F)c(F)c3)nc(Nc3ccc(N4CCN(C)CC4)cc3)nc21
2: CCCCCCCCn1cnc2c(Nc3cccc(F)c3)nc(Nc3ccc(N4CCN(C)CC4)cc3)nc21
3: CCCCCCCCn1cnc2c(Nc3ccc(F)c(F)c3)nc(Nc3ccc(N4CCN(C)CC4)cc3)nc21
Task: Please put the entries in order of rising pIC50. Please, when replying, give the labels in the order that was requested.
Result: 1, 2, 3
(1: 5.72, 2: 6.01, 3: 6.24)

A: CN1CCN(c2ccc(Nc3nc(Nc4ccc(C#N)cc4)c4ncn(CC5CC5)c4n3)cc2)CC1
B: CN1CCN(C(=O)c2ccc(Nc3nc(Nc4cccc(F)c4)c4ncn(CC5CC5)c4n3)cc2)CC1
Task: Pick one: A or B . Which has the bigger pIC50 number? Refer to your chosen item by its label in the answer.
Result: A

1: CCOC(=O)c1ccc(Nc2nc(Nc3ccc(N4CCN(C)CC4)cc3)nc3c2ncn3CC2CC2)cc1
2: CN1CCN(c2ccc(Nc3nc(Nc4ccc(OC(F)(F)F)cc4)c4ncn(CC5CC5)c4n3)cc2)CC1
Task: Identify the entry with the larger pIC50. Options: 1 and 2 Indicate which entry you chose by stating its label.
Result: 2

----------
molecular target: Bcr-Abl1 (Homo sapiens); assay: Recombinant kinase radioassay, Abl; details: ATP 1 µM, at least three independent experiments, range 0.01–100 µM
Sequence (P00519 27-1130): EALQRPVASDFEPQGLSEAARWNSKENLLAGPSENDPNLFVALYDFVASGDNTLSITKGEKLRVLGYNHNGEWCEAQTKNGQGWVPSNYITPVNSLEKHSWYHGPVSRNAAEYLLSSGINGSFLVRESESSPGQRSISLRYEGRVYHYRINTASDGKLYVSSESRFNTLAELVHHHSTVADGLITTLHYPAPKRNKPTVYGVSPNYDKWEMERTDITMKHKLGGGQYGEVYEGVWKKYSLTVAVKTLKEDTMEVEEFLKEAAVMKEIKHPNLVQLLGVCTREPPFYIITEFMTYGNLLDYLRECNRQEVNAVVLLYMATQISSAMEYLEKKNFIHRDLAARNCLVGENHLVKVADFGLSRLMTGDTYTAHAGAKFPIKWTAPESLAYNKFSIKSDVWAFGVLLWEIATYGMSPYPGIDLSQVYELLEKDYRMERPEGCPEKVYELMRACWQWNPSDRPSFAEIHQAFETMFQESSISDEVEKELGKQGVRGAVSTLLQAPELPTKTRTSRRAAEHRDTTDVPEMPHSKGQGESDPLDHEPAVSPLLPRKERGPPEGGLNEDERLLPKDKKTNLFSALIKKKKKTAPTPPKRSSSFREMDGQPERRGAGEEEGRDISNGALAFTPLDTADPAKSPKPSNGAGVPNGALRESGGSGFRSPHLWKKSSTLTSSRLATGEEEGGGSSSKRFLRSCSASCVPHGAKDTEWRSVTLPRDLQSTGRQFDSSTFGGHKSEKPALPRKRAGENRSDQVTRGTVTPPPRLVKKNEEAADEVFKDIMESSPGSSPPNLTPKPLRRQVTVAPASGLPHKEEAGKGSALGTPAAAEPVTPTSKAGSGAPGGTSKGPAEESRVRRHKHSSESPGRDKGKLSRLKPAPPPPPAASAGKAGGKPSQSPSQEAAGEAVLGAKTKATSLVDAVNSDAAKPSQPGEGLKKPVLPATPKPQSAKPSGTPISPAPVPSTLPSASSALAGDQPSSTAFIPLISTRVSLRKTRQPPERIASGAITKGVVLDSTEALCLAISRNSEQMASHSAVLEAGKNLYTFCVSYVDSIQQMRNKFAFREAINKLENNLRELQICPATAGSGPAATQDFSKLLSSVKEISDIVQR
Quantity Measured: IC50 (nM)

[
  {
    "Compound": "CCCCCn1cnc2c(Nc3ccc(F)c(F)c3)nc(Nc3ccc(N4CCN(C)CC4)cc3)nc21 [Compound 5f]",
    "IC50 / nM": 1360
  },
  {
    "Compound": "CN1CCN(C(=O)c2ccc(Nc3nc(Nc4ccccc4)c4ncn(CC5CC5)c4n3)cc2)CC1 [Compound 8a]",
    "IC50 / nM": 1210
  },
  {
    "Compound": "CN1CCN(C(=O)c2ccc(Nc3nc(Nc4ccc(F)c(F)c4)c4ncn(CC5CC5)c4n3)cc2)CC1 [Compound 8c]",
    "IC50 / nM": 940
  },
  {
    "Compound": "CCCCCn1cnc2c(Nc3ccccc3)nc(Nc3ccc(N4CCN(C)CC4)cc3)nc21 [Compound 5d]",
    "IC50 / nM": 1230
  }
]

----------
target: FLT3-ITD (Homo sapiens, UniProt P36888, ITD); assay: Recombinant kinase radioassay, FLT3-ITD; format: biochemical; details: recombinant kinase, radioassay; at least three independent experiments, range 0.01–100 µM; read-out: IC50 FLT3-ITD
Sequence (P36888 27-993, change not shown): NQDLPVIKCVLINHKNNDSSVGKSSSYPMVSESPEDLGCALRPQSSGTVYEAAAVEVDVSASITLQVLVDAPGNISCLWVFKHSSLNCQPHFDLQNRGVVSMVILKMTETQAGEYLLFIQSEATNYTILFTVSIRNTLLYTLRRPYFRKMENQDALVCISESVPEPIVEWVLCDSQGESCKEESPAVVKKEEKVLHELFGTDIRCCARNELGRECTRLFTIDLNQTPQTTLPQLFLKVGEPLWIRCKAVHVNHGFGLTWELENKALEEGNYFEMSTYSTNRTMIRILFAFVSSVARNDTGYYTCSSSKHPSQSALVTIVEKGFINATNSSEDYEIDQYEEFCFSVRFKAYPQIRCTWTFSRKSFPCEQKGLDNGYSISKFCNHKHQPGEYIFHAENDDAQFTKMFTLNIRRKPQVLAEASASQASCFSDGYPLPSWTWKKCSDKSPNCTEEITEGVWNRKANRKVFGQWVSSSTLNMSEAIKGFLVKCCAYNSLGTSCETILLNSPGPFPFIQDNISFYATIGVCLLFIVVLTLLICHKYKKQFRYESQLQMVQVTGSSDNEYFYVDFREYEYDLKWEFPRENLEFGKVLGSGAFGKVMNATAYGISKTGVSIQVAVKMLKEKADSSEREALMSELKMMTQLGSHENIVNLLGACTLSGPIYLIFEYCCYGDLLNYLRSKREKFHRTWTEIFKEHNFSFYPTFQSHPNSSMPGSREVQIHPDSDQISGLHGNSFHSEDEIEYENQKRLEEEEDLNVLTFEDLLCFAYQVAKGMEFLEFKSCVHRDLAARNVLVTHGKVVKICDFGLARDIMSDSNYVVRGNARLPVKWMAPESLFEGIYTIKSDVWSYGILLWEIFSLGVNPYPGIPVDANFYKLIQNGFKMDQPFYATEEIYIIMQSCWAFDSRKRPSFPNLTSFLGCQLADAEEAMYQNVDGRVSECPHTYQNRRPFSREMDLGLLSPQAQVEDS
pIC50: −log10 of the molar value.
Quantity Measured: pIC50

[
  {
    "Chemical Structure": "CCCCCCCCn1cnc2c(Nc3cccc(F)c3)nc(Nc3ccc(N4CCN(C)CC4)cc3)nc21",
    "Quantity Measured": "pIC50",
    "Result": "< 4.70"
  },
  {
    "Chemical Structure": "CCCCCCCCn1cnc2c(Nc3ccc(F)c(F)c3)nc(Nc3ccc(N4CCN(C)CC4)cc3)nc21",
    "Quantity Measured": "pIC50",
    "Result": "< 4.70"
  }
]

Would you kindly look at the next entry?
Task: Would you kindly share the measured pIC50 for CN1CCN(c2ccc(Nc3nc(Nc4ccccc4)c4ccn(CC5CC5)c4n3)cc2)CC1 ?
Result: < 4.70
